target_of_assay: human MGAT-2 (Homo sapiens (Human), UniProt Q3SYC2)
Sequence (Q3SYC2 whole entry): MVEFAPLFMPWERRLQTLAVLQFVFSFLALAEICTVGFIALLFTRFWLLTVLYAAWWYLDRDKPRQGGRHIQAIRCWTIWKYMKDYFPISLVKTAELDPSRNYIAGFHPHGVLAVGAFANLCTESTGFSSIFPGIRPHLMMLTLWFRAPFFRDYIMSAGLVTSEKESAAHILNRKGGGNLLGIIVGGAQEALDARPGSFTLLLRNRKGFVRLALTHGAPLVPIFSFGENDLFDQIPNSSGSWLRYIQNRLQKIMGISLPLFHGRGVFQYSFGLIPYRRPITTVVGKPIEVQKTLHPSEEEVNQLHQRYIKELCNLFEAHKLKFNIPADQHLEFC
pIC50: −log10 of the molar value.
We'd kindly ask you to apply these pIC50 classes: bottom range (below 7), center range (7 to below 8), top range (8 or more)

# structure_as_smiles, group
data = [
    ("Cc1ccc(C2=C(n3nn[nH]c3=O)C(=O)N[C@@](c3ccc(OCCCCCC(F)(F)F)cc3)(C(F)(F)F)C2)cc1", "top range"),
    ("O=C1N[C@@](c2ccc(OCCCC(F)(F)F)cc2F)(C(F)(F)F)CC(c2ccn(C3CCC3)n2)=C1n1nn[nH]c1=O", "center range"),
    ("Cc1ccc(C2=C(n3nn[nH]c3=O)C(=O)N[C@@](c3ccc(OCCCC(F)(F)F)cc3)(C(F)(F)F)C2)cc1", "center range"),
    ("O=C1N[C@@](c2ccc(OCCCC(F)(F)F)cc2F)(C(F)(F)F)CC(c2ccn(C3CC3)n2)=C1n1nn[nH]c1=O", "bottom range"),
    ("O=C1N[C@@](c2cnn(CCCCCCC(F)(F)F)c2)(C(F)(F)F)CC(c2ccc3c(c2)CCCC3)=C1n1nn[nH]c1=O", "top range"),
    ("COc1ccc(C2=C(n3nn[nH]c3=O)C(=O)N[C@@](c3ccc(OCCCC(F)(F)F)cc3)(C(F)(F)F)C2)cc1", "bottom range"),
    ("CCc1ccc(C2=C(n3nn[nH]c3=O)C(=O)N[C@H](c3ccc(OCCCC(F)(F)F)cc3Cl)C2)s1", "center range"),
    ("CCc1ccc(C2=C(n3nn[nH]c3=O)C(=O)N[C@@](c3ccc(OCCCC(F)(F)F)cc3)(C(F)(F)F)C2)s1", "center range"),
]
